Hello, the source for this data is patent US20020137929A1, in case you need it.

Reported Herbicidal rating ORYSAT (rice tolerance) values for a set of compounds
test system: ORYSAT (Rice, Tebonnet); experiment: Rice tolerance to post-transplant applications, flooded paddy conditions (Table IV); type: in vivo, Oryza sativa, (L.) Tebonnet; settings: in vivo
Lab note: record just the number, no unit beside it.

{"compound": "CCOC(=O)CN1C(=O)C(=Cc2ccc(F)cc2)SC1=Nc1cc(-n2c(=O)cc(C(F)(F)F)n(C)c2=O)c(F)cc1Cl [Compound 21]", "obsValue": 0.0}
{"compound": "Cn1c(C(F)(F)F)cc(=O)n(-c2cc(N=C3SCC(=O)N3CCC(=O)O)c(Cl)cc2F)c1=O [Compound 31]", "obsValue": 0.0}
{"compound": "COC(=O)C1(N2C(=O)CSC2=Nc2cc(-n3c(=O)cc(C(F)(F)F)n(C)c3=O)c(F)cc2Cl)CCCCC1 [Compound 81]", "obsValue": 0.0}
{"compound": "CCOC(=O)CCN1C(=O)CSC1=Nc1cc(-n2c(=O)cc(C(F)(F)F)n(C)c2=O)c(Cl)cc1Cl [Compound 32]", "obsValue": 0.0}
{"compound": "CCOC(=O)CN1C(=O)C(=C2CCCC2)SC1=Nc1cc(-n2c(=O)cc(C(F)(F)F)n(C)c2=O)c(F)cc1Cl [Compound 18]", "obsValue": 3.0}

## Input Supply reported Herbicidal rating ORYSAT (rice tolerance) belonging to this compound: Cn1c(C(F)(F)F)cc(=O)n(-c2cc(N=C3SCC(=O)N3CCC(=O)O)c(Cl)cc2F)c1=O [Compound 30]
## Output 0.0

## Input Supply reported Herbicidal rating ORYSAT (rice tolerance) belonging to this compound: Cn1c(C(F)(F)F)cc(=O)n(-c2cc(/N=C3/SCC(=O)N3CC(=O)O)c(Cl)cc2F)c1=O [Compound 52]
## Output 0.0

## Input Supply reported Herbicidal rating ORYSAT (rice tolerance) belonging to this compound: CCOC(=O)CN1C(=O)C(=C(C)C)S/C1=N/c1cc(-n2c(=O)cc(C(F)(F)F)n(C)c2=O)c(F)cc1Cl [Compound 20]
## Output 2.0

###

Reported Herbicidal rating MOOVA values for a set of compounds
test system: MOOVA (Monochoria); test: Preemergence weed control under flooded paddy conditions; assay type: in vivo, Monochoria vaginalis; conditions: 0.0625 kg/ha, rated 3-4 weeks after treatment

Below, 2 compounds whose answers are already recorded.
{"compound": "CCOC(=O)CN1C(=O)C(CC)SC1=Nc1cc(-n2c(=O)cc(C(F)(F)F)n(C)c2=O)c(F)cc1Cl (stereo not drawn)", "Herbicidal rating MOOVA": 9.0}
{"compound": "CCOC(=O)COc1ccccc1CC1S/C(=N/c2cc(-n3c(=O)cc(C(F)(F)F)n(C)c3=O)c(F)cc2Cl)N(CC(=O)OCC)C1=O (stereo not drawn)", "Herbicidal rating MOOVA": 9.0}

Next, consider the following compound.
## Input Supply reported Herbicidal rating MOOVA belonging to this compound: CCOC(=O)CN1C(=O)C[S+]([O-])/C1=N/c1cc(-n2c(=O)cc(C(F)(F)F)n(C)c2=O)c(F)cc1Cl (stereo not drawn)
## Output 7.0

###

Reported Preemergence herbicidal rating ORYSAT values for a set of compounds
test system: ORYSAT (Rice, Tebonnet); test: Preemergence herbicidal evaluation; assay type: in vivo, Oryza sativa, (L.) Tebonnet; details: rate 0.1250 kg/ha; rated 4-5 weeks after treatment
Lab note: record just the number, no unit beside it.

{"compound": "CCOC(=O)CN1C(=O)C(Cc2ccccc2OC(C)C(=O)OC)SC1=Nc1cc(-n2c(=O)cc(C(F)(F)F)n(C)c2=O)c(F)cc1Cl (stereo not drawn) [Compound 50]", "Preemergence herbicidal rating ORYSAT": 0.0}

## Input Supply reported Preemergence herbicidal rating ORYSAT belonging to this compound: Cn1c(C(F)(F)F)cc(=O)n(-c2cc(N=C3SCC(=O)N3CCC(=O)O)c(Cl)cc2F)c1=O [Compound 30]
## Output 1.0

## Input Supply reported Preemergence herbicidal rating ORYSAT belonging to this compound: CCOC(=O)COc1ccccc1CC1S/C(=N/c2cc(-n3c(=O)cc(C(F)(F)F)n(C)c3=O)c(F)cc2Cl)N(CC(=O)OCC)C1=O (stereo not drawn) [Compound 42]
## Output 0.0

## Input Supply reported Preemergence herbicidal rating ORYSAT belonging to this compound: CCOC(=O)CN1C(=O)C(CC(=O)O)O/C1=N/c1cc(-n2c(=O)cc(C(F)(F)F)n(C)c2=O)c(F)cc1Cl (stereo not drawn) [Compound 41]
## Output 0.0

## Input Supply reported Preemergence herbicidal rating ORYSAT belonging to this compound: CCOC(=O)CN1C(=O)C(CC(=O)O)SC1=Nc1cc(-n2nc(C)n(C(F)F)c2=O)c(F)cc1Cl (stereo not drawn) [Compound 112]
## Output 0.0

## Input Supply reported Preemergence herbicidal rating ORYSAT belonging to this compound: CCOC(=O)CN1C(=O)C(C(=O)OCC)SC1=Nc1cc(-n2c(=O)cc(C(F)(F)F)n(C)c2=O)c(F)cc1Cl (stereo not drawn) [Compound 127]
## Output 0.0

## Input Supply reported Preemergence herbicidal rating ORYSAT belonging to this compound: CCOC(=O)CN1C(=O)C(Cc2ccccc2OC(C)C(=O)O)S/C1=N/c1cc(-n2c(=O)cc(C(F)(F)F)n(C)c2=O)c(F)cc1Cl (stereo not drawn) [Compound 114]
## Output 2.0

## Input Supply reported Preemergence herbicidal rating ORYSAT belonging to this compound: C=CCN1C(=O)C(CC(=O)O)SC1=Nc1cc(-n2c(=O)cc(C(F)(F)F)n(C)c2=O)c(F)cc1Cl (stereo not drawn) [Compound 62]
## Output 4.0

## Input Supply reported Preemergence herbicidal rating ORYSAT belonging to this compound: CCOC(=O)C(c1ccc(Cl)cc1)N1C(=O)CSC1=Nc1cc(-n2c(=O)cc(C(F)(F)F)n(C)c2=O)c(F)cc1Cl (racemic) [Compound 79]
## Output 0.0

## Input Supply reported Preemergence herbicidal rating ORYSAT belonging to this compound: CCOC(=O)CN1C(=O)C(CC(=O)NS(=O)(=O)C(C)C)SC1=Nc1cc(-n2c(=O)cc(C(F)(F)F)n(C)c2=O)c(F)cc1Cl (stereo not drawn) [Compound 117]
## Output 0.0

## Input Supply reported Preemergence herbicidal rating ORYSAT belonging to this compound: CCOC(=O)CN1C(=O)C[S+]([O-])/C1=N/c1cc(-n2c(=O)cc(C(F)(F)F)n(C)c2=O)c(F)cc1Cl (stereo not drawn) [Compound 45]
## Output 0.0

## Input Supply reported Preemergence herbicidal rating ORYSAT belonging to this compound: Cn1c(C(F)(F)F)cc(=O)n(-c2cc(N=C3SCC(=O)N3C3CCOC3=O)c(Cl)cc2F)c1=O (stereo not drawn) [Compound 73]
## Output 2.0

## Input Supply reported Preemergence herbicidal rating ORYSAT belonging to this compound: Cn1c(C(F)(F)F)cc(=O)n(-c2cc(/N=C3/SCC(=O)N3CC(=O)O)c(Cl)cc2F)c1=O [Compound 52]
## Output 0.0

## Input Supply reported Preemergence herbicidal rating ORYSAT belonging to this compound: CCOC(=O)CN1C(=O)C(CC(=O)OCc2ccccc2)OC1=Nc1cc(-n2c(=O)cc(C(F)(F)F)n(C)c2=O)c(F)cc1Cl (stereo not drawn) [Compound 40]
## Output 0.0

## Input Supply reported Preemergence herbicidal rating ORYSAT belonging to this compound: Cn1c(C(F)(F)F)cc(=O)n(-c2cc(N=C3SCC(=O)N3CC(=O)OCC#N)c(Cl)cc2F)c1=O [Compound 109]
## Output 4.0
